# Tested on: PTJ64i
# procedure text: MTT cell viability assay, PTJ64i
# Assay type: cell-based
# conditions used: PTJ64i paraganglioma, MTT, 72 h
readout label: IC50 (µM)

> print(dat)
                                   molecule  number
1  O=C(Nc1cccc(F)c1)C(Sc1nc2cc(Cl)ccc2s1)c1ccccc1 (stereo not drawn)     8.6
2  O=C(Nc1cccc(C(F)(F)F)c1)C(Sc1nc2cc(Cl)ccc2s1)c1ccccc1 (stereo not drawn)    11.2
3  CC(=O)Nc1cccc(NC(=O)C(Sc2nc3cc(Cl)ccc3s2)c2ccccc2)c1 (stereo not drawn)    10.1
4  O=C(Nc1ccc(Cl)c(Cl)c1)C(Sc1nc2cc(Cl)ccc2s1)c1ccccc1 (stereo not drawn)    7.84
5  O=C(Nc1ccc([N+](=O)[O-])cc1)C(Sc1nc2cc(Cl)ccc2s1)c1ccccc1 (stereo not drawn)    9.81
6  CC(=O)Nc1ccc(NC(=O)C(Sc2nc3cc(Cl)ccc3s2)c2ccccc2)cc1 (stereo not drawn)    12.3
7  O=C(Nc1cccc([N+](=O)[O-])c1)C(Sc1nc2cc(Cl)ccc2s1)c1ccccc1 (stereo not drawn)    7.47
8  O=C(Nc1ccc(C(F)(F)F)cc1)C(Sc1nc2cc(Cl)ccc2s1)c1ccccc1 (stereo not drawn)    6.79
9  O=C(Nc1cccc(Cl)c1)C(Sc1nc2cc(Cl)ccc2s1)c1ccccc1 (stereo not drawn)    7.27

====

# Test system: HFF-1
# procedure text: MTT cell viability assay, normal fibroblasts HFF-1
# Format: cell-based, human
# conditions used: Homo sapiens; HFF-1 normal cells, MTT, 72 h
Entries and their measured log10(IC50) follow.
readout label: log10(IC50) (log10 of the value in µM)

> print(dat)
                                   compound  study.system  readout.label  number
1  O=C(Nc1cccc(F)c1)C(Sc1nc2cc(Cl)ccc2s1)c1ccccc1 (centres unmarked) [4i]         HFF-1    log10(IC50)    1.18
2  O=C(Nc1cccc(C(F)(F)F)c1)C(Sc1nc2cc(Cl)ccc2s1)c1ccccc1 (centres unmarked) [4j]         HFF-1    log10(IC50)    1.26
3  O=C(Nc1ccccc1)C(Sc1nc2cc(Cl)ccc2s1)c1ccccc1 (centres unmarked) [2b, reference compound]         HFF-1    log10(IC50)    1.33
4  O=C(Nc1cccc(Cl)c1)C(Sc1nc2cc(Cl)ccc2s1)c1ccccc1 (centres unmarked) [4h]         HFF-1    log10(IC50)    1.06
5  O=C(Nc1ccc([N+](=O)[O-])cc1)C(Sc1nc2cc(Cl)ccc2s1)c1ccccc1 (centres unmarked) [4e]         HFF-1    log10(IC50)    1.22
6  CC(=O)Nc1ccc(NC(=O)C(Sc2nc3cc(Cl)ccc3s2)c2ccccc2)cc1 (centres unmarked) [4f]         HFF-1    log10(IC50)    0.82
7  CC(=O)Nc1cccc(NC(=O)C(Sc2nc3cc(Cl)ccc3s2)c2ccccc2)c1 (centres unmarked) [4l]         HFF-1    log10(IC50)    1.83
8  O=C(Nc1cccc([N+](=O)[O-])c1)C(Sc1nc2cc(Cl)ccc2s1)c1ccccc1 (centres unmarked) [4k]         HFF-1    log10(IC50)    1.37
